Values from patent US20080096922A1

Test system: LDL receptor
RUN_DESCRIPTION: Effects on an activity of a LDL receptor: uptake amount of DiI-LDL into HepG2 cell
Format: cell-based, human
ASSAY_CONTEXT: 10 μM, control group as 100%
Where a name gives a salt, the structure may show the parent alone.
RECORDED_ENDPOINT: Activity of (%) LDL receptor
Please reply with the bare figure in % and do not write the unit itself.

Request: State its Activity of (%) LDL receptor for this molecule: COc1cccc(C2(C(=O)NS(=O)(=O)NC(C)c3ccccc3)CCN(c3ncccn3)CC2)c1 (stereo not shown)
Result: 127

Request: State its Activity of (%) LDL receptor for this molecule: COc1cccc(C2(C(=O)NS(=O)(=O)Oc3c(C(C)C)cccc3C(C)C)CCN(c3ccccc3OC)CC2)c1
Result: 124

Request: State its Activity of (%) LDL receptor for this molecule: COc1cccc(C2(NS(=O)(=O)NC(=O)c3ccc(Cl)cc3)CCN(c3ncccn3)CC2)c1
Result: 139

Request: State its Activity of (%) LDL receptor for this molecule: COc1cccc(C2(C(=O)NS(N)(=O)=O)CCN(c3ncccn3)CC2)c1
Result: 186

Request: State its Activity of (%) LDL receptor for this molecule: COc1cccc([C@]2(CNS(N)(=O)=O)CC[C@@H](NC3CCN(Cc4ccccc4)CC3)CC2)c1
Result: 230

Request: State its Activity of (%) LDL receptor for this molecule: COc1cccc([C@]2(CNS(C)(=O)=O)CC[C@@H](NC3CCNCC3)CC2)c1 [Example 10-3, dihydrochloride]
Result: 162

Request: State its Activity of (%) LDL receptor for this molecule: COc1cccc([C@]2(CNS(N)(=O)=O)CC[C@@H](NCc3ccc(S(N)(=O)=O)cc3)CC2)c1.Cl
Result: 150

====

Provide the recorded Activity of (%) LDL receptor for the entries that follow.
System: LDL receptor
RUN_DESCRIPTION: Effects on an activity of a LDL receptor: uptake amount of DiI-LDL into HepG2 cell
Format: cell-based, human
ASSAY_CONTEXT: 10 μM, control group as 100%
Please reply with the bare figure in % and do not write the unit itself.

Request: State its Activity of (%) LDL receptor for this compound: COc1cccc([C@]2(CNS(C)(=O)=O)CC[C@@H](NCc3ccc(S(C)(=O)=O)cc3)CC2)c1
Result: 142

Request: State its Activity of (%) LDL receptor for this compound: COc1cccc([C@]2(CNS(C)(=O)=O)CC[C@@H](NC3CCN(Cc4ccc(NC(C)=O)cc4)CC3)CC2)c1
Result: 192

Request: State its Activity of (%) LDL receptor for this compound: COc1cccc(C2(C(=O)NS(=O)(=O)Oc3c(C(C)C)cccc3C(C)C)CCC(Nc3ccccc3OC)CC2)c1 (stereo not shown)
Result: 154

Request: State its Activity of (%) LDL receptor for this compound: COc1cccc([C@]2(CNS(N)(=O)=O)CC[C@@H](NCc3ccc(-n4cncn4)cc3)CC2)c1
Result: 154

====

Tested on: LDL receptor
RUN_DESCRIPTION: Effects on an activity of a LDL receptor: uptake amount of DiI-LDL into HepG2 cell
Type: cell-based, human
ASSAY_CONTEXT: 10 μM, control group as 100%
Method: The 1,1′-dioctadecyl-3,3,3′,3′-tetramethylindocarbocyanine perchlorate (DiI)-labeled LDL (DiI-LDL) was prepared as follows. That is, a DiI (Invitrogen Corp., U.S.A) was mixed with a human LDL (Chemicon International, Inc., U.S.A) and the mixture was incubated at 37° C. for 8 hours. […] The effects on a LDL receptor activity were determined as the uptake amount of DiI-LDL into HepG2 cell. […] The uptake amount of non-specific DiI-LDL was measured by adding 30 to 50 folds amount of the non-labeled LDL. […]
Structures can show the parent of a compound that is named as a salt.
RECORDED_ENDPOINT: Activity of (%) LDL receptor
Please reply with the bare figure in % and do not write the unit itself.

Request: Under LDL receptor: report Activity of (%) LDL receptor of COc1cccc([C@]2(CNS(C)(=O)=O)CC[C@H](N3CCN(C)CC3)CC2)c1 .
Result: 129

Request: Under LDL receptor: report Activity of (%) LDL receptor of COc1cccc(C2(C(=O)NS(=O)(=O)Oc3c(C(C)C)cccc3C(C)C)CCN(c3nc4ccccc4s3)CC2)c1 .
Result: 132

Request: Under LDL receptor: report Activity of (%) LDL receptor of COc1cccc(C2(C(=O)NP(=O)(Cc3ccccc3C)OC)CCN(c3ccccc3OC)CC2)c1 (stereo not shown) .
Result: 140

Request: Under LDL receptor: report Activity of (%) LDL receptor of COc1cccc([C@]2(CNS(C)(=O)=O)CC[C@@H](NC3CCN(Cc4ccc(S(C)(=O)=O)cc4)CC3)CC2)c1 .
Result: 223

Request: Under LDL receptor: report Activity of (%) LDL receptor of COc1cccc(C2(CNS(=O)(=O)c3ccc(C)cc3)CCN(C(c3ccccc3)c3ccccc3)CC2)c1 .
Result: 122

Request: Under LDL receptor: report Activity of (%) LDL receptor of COc1cccc([C@]2(CNS(N)(=O)=O)CC[C@H](NC3CCN(Cc4ccccc4)CC3)CC2)c1 [Example 55, dihydrochloride] .
Result: 140

Request: Under LDL receptor: report Activity of (%) LDL receptor of COc1cccc(C2(C(=O)NS(=O)(=O)Oc3c(C(C)C)cccc3C(C)C)CCN(c3ncccn3)CC2)c1 .
Result: 120

====

System: LDL receptor
RUN_DESCRIPTION: Effects on an activity of a LDL receptor: uptake amount of DiI-LDL into HepG2 cell
Assay type: cell-based, human
ASSAY_CONTEXT: 10 μM, control group as 100%
RECORDED_ENDPOINT: Activity of (%) LDL receptor
Please reply with the bare figure in % and do not write the unit itself.

Request: State its Activity of (%) LDL receptor for this molecule: COc1cccc(C2(CNS(C)(=O)=O)CCN(c3ccccc3OC)CC2)c1 [Example 27-1]
Result: 108

Request: State its Activity of (%) LDL receptor for this molecule: COc1cccc([C@]2(CNS(=O)(=O)NC(=O)OC(C)(C)C)CC[C@@H](NCc3ccc(-c4ccccc4)cc3)CC2)c1 [Example 41]
Result: 173

Request: State its Activity of (%) LDL receptor for this molecule: COc1cccc([C@]2(CNS(N)(=O)=O)CC[C@@H](NCc3ccc(-n4ccnc4)cc3)CC2)c1 [Example 18-2]
Result: 161

Request: State its Activity of (%) LDL receptor for this molecule: COc1cccc(C2(C(=O)NS(=O)(=O)Oc3ccccc3C(C)(C)C)CCN(c3ccccc3OC)CC2)c1 [Example 1-8]
Result: 134
